Numbers sourced from the supplement of paper PMC10567573.

B1: BRF1 (parent)
chain: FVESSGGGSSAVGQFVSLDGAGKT

Variants of: B1
Experiment: protein stability index of a GFP-peptide fusion (GPS, HEK-293T) (PSI 1-6); higher = more stable;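 also: lentivirally expressed fusions sorted by FACS into six bins by GFP to DsRed ratio, PSI derived from sequencing read proportions per bin multiplied by bin number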
Conditions: c terminus: a fixed tail appended
In this section we review reported protein stability index values for a set of variants.
// print number alone

Please review the following examples before continuing.
Req: Quick one: protein stability index of A21P ?
Resp: 1.95

Req: Quick one: protein stability index of G22E ?
Resp: 3.08

Req: Quick one: protein stability index of G13D ?
Resp: 3.3

Req: Quick one: protein stability index of G7Q ?
Resp: 2.26

Then this variant:
Req: Quick one: protein stability index of V12N ?
Resp: 3.08
